Origin of measurements: PubChem BioAssay AID1159580

# measurement protocol: chemical genetic growth profiling, strain panel (AID 1159580);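 note: tested at 20 µM; growth read once vehicle control cultures reached saturation at 30 °C; 1 = growth at the plate median or of vehicle wells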
# condition label: S. cerevisiae deletion strains, growth OD, locus YER167W, strain BCK2, stronger effect = lower value
Screen size: about 5,500 compounds; about 2,000 (36%) were called active. Inconclusive results (about 18%) are left out. This is one part of the list.
normalized growth: recorded values

>  <molecule>
Nc1ccn(C2O[C@H](CO)[C@@H](O)[C@H]2O)c(=O)n1 (stereo partly specified)

>  <normalized growth>
0.987

$$$$
>  <molecule>
Nc1ccncc1

>  <normalized growth>
1.02

$$$$
>  <molecule>
COC(=O)c1c(C)cc(OC(=O)c2c(C)c(Cl)c(O)c(C=O)c2O)c(C)c1O

>  <normalized growth>
1

$$$$
>  <molecule>
NC(N)=NCCCC(NC(=O)C(N)Cc1ccc(O)cc1)C(=O)O (stereo unspecified)

>  <normalized growth>
1.01

$$$$
>  <molecule>
C[C@@H]1O[C@@H](O[C@H]2C[C@@H](O)[C@]3(CO)C4C(CC[C@]3(O)C2)[C@@]2(O)CC[C@H](C3=CC(=O)OC3)[C@@]2(C)C[C@H]4O)[C@H](O)[C@H](O)[C@H]1O (stereo partly specified)

>  <normalized growth>
1.03

$$$$
>  <molecule>
CC(CCC(=O)O)[C@H]1CCC2C3CC[C@@H]4CCCC[C@]4(C)C3CC[C@@]21C (stereo partly specified)

>  <normalized growth>
0.98

$$$$
>  <molecule>
CC(=O)O[C@H]1CC[C@]2(C)C3C(=O)[C@@H](OC(C)=O)[C@@]4(C)C(C[C@@H]5O[C@]6(CCC(C)CO6)[C@@H](C)[C@@H]54)C3CC[C@H]2C1 (stereo partly specified)

>  <normalized growth>
0.993

$$$$
>  <molecule>
CC(=O)O[C@H]1CC[C@]2(C)C3=CC(=O)[C@@]4(C)C(C[C@@H]5OC6(OCC(C)CC6Br)[C@@H](C)[C@@H]54)C3CC[C@H]2C1 (stereo partly specified)

>  <normalized growth>
0.996

$$$$
>  <molecule>
CC1(C)C(=O)C=C[C@@]2(C)C1CC(=O)[C@@]1(C)C3=CC(=O)O[C@@H](c4ccoc4)[C@]3(C)CCC12 (stereo partly specified)

>  <normalized growth>
1

$$$$
>  <molecule>
COC(=O)CCC(=O)O[C@H]1CCC2(C)C(CCC3C2C(=O)[C@@H](O)C2(C)C3CC3OC4(CCC(C)CO4)[C@@H](C)C32)C1 (stereo partly specified)

>  <normalized growth>
1.02

$$$$
>  <molecule>
O=C(Nc1ccccc1)Nc1ccccc1

>  <normalized growth>
1

$$$$

----------
# measurement protocol: chemical genetic growth profiling, strain panel (AID 1159580)
# condition label: S. cerevisiae deletion strains, growth OD, locus YLR371W, strain rom2, stronger effect = lower value
Screen size: about 5,500 compounds; about 2,000 (36%) were called active. Roughly 18% stayed inconclusive and do not appear here. The list shows a part of the results.
normalized growth: recorded values

>  <molecule>
CC1(C)C(O)CC(O)C2(C)C1CC(O)C1(C)C2CCC2(C)C(c3ccoc3)OC(=O)C3OC321 (configuration not stated)

>  <normalized growth>
0.954 (inactive)

$$$$
>  <molecule>
C=C1C(C2(C)C=CC(=O)C(C)(C)C2CC(=O)OC)CC[C@@]2(C)[C@H](c3ccoc3)OC(=O)C3OC132 (some centres not stated)

>  <normalized growth>
0.972 (inactive)

$$$$
>  <molecule>
C=C1C2=CC(=O)O[C@@H](c3ccoc3)[C@]2(C)CCC1[C@@]1(C)C=CC(=O)C(C)(C)[C@@H]1CC(=O)OC (some centres not stated)

>  <normalized growth>
0.998 (inactive)

$$$$
>  <molecule>
C=C1C2CCC3(C)C(c4ccoc4)OC(=O)CC13OC1CC(OC(C)=O)C(C)(C)C(CC(=O)OC)C12C (configuration not stated)

>  <normalized growth>
1.01 (inactive)

$$$$
>  <molecule>
CCC(=O)Nc1ccc(Cl)c(Cl)c1

>  <normalized growth>
1.01 (inactive)

$$$$
>  <molecule>
COc1cc2c(cc1-c1cc3cc4ccoc4cc3oc1=O)OCO2

>  <normalized growth>
1.18 [resistant] (active)

$$$$
>  <molecule>
CCN(CCCc1ccccc1)CCCc1ccccc1

>  <normalized growth>
1.02 (inactive)

$$$$
>  <molecule>
OC1=Cc2c(O)cc(O)cc2OC1(O)c1ccc(O)c(O)c1 (configuration not stated)

>  <normalized growth>
0.975 (inactive)

$$$$
>  <molecule>
NC(Cc1ccc(F)cc1)C(=O)O (configuration not stated)

>  <normalized growth>
1.02 (inactive)

$$$$
>  <molecule>
Cc1cc(=O)oc2c(O)c(O)ccc12

>  <normalized growth>
1 (inactive)

$$$$
>  <molecule>
CN(C)C(=O)Nc1ccc(Cl)c(Cl)c1

>  <normalized growth>
1 (inactive)

$$$$
>  <molecule>
C=C[C@H]1CN2CC[C@H]1C[C@@H]2[C@H](O)c1ccnc2ccccc12

>  <normalized growth>
0.977 (inactive)

$$$$

----------
normalized growth: recorded values
# measurement protocol: chemical genetic growth profiling, strain panel (AID 1159580)
# condition label: S. cerevisiae deletion strains, growth OD, locus YER015W, strain faa2, stronger effect = lower value
Among all 5,500 compounds or so, about 2,000 (36%) were called active. About 18% were inconclusive and are not listed. Some of the results follow.
parameter measured: normalized growth

>  <compound>
Nc1ccn(C2O[C@H](CO)[C@@H](O)[C@H]2O)c(=O)n1 (stereo partly drawn)

>  <endpoint result>
1.01

$$$$
>  <compound>
Cc1nc2ccccn2c(=O)c1CCN1CCC(C(=O)c2ccc(F)cc2)CC1

>  <endpoint result>
0.997

$$$$
>  <compound>
O=c1cc(-c2ccc(O)cc2)oc2cc(O)ccc12

>  <endpoint result>
0.973

$$$$

----------
# measurement protocol: chemical genetic growth profiling, strain panel (AID 1159580);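 note: tested at 20 µM; growth read once vehicle control cultures reached saturation at 30 °C; 1 = growth at the plate median or of vehicle wells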
# condition label: S. cerevisiae deletion strains, growth OD, locus YPL256C, strain CLN2
About 2,000 (36%) of roughly 5,500 compounds were called active. Roughly 18% stayed inconclusive and do not appear here. Rule as the data show it: active = normalized growth mostly below about 0.91 (no sharp cut-off); inconclusive = no clear call, values can overlap the other calls; inactive = mostly above about 0.92. This is one part of the list.
Outcome codes: active, inactive

>  <compound>
N#Cc1ccc(NC(=O)Nc2cccc3ccccc23)cc1

>  <assigned label>
inactive

$$$$
>  <compound>
CC(CCC(=O)O)[C@H]1CCC2C3CC[C@@H]4CCCC[C@]4(C)C3CC[C@@]21C (stereo partly drawn)

>  <assigned label>
inactive

$$$$
>  <compound>
C[C@@H](N)[C@@H](O)c1ccccc1

>  <assigned label>
inactive

$$$$
>  <compound>
O=C1CN=C(c2ccccc2Cl)c2cc([N+](=O)[O-])ccc2N1

>  <assigned label>
inactive

$$$$
>  <compound>
O=[N+]([O-])c1ccc(-c2csc(Nc3ccncc3)n2)cc1

>  <assigned label>
inactive

$$$$
>  <compound>
O=C(Nc1ccccc1)Nc1ccccc1

>  <assigned label>
inactive

$$$$
>  <compound>
COC(=O)CCC(C)C1CCC2C3CC[C@@H]4C[C@H](O)CC[C@]4(C)C3C[C@H](O)[C@]12C (stereo partly drawn)

>  <assigned label>
active

$$$$
>  <compound>
NS(=O)(=O)c1cc2c(cc1Cl)NC(C1CC3C=CC1C3)NS2(=O)=O (stereo not drawn)

>  <assigned label>
inactive

$$$$

----------
# measurement protocol: chemical genetic growth profiling, strain panel (AID 1159580);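 note: tested at 20 µM; growth read once vehicle control cultures reached saturation at 30 °C; 1 = growth at the plate median or of vehicle wells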
# condition label: S. cerevisiae deletion strains, growth OD, locus YMR129W, stronger effect = lower value
In all, about 5,500 compounds went through this assay and about 2,000 (36%) were called active. Roughly 18% stayed inconclusive and do not appear here. This is one part of the list.

>  <molecule>
CCCC(C(=O)OCCN(CC)CC)(c1ccccc1)c1ccccc1

>  <normalized growth>
0.983

$$$$
>  <molecule>
CCN(CC)CCOC(=O)C(c1ccccc1)c1ccccc1

>  <normalized growth>
0.975

$$$$
>  <molecule>
C[C@@H]1CC2C3C[C@H](F)C4=CC(=O)C=C[C@]4(C)[C@@]3(F)[C@@H](O)C[C@]2(C)[C@@]1(O)C(=O)COC(=O)C(C)(C)C (some centres undefined)

>  <normalized growth>
0.988

$$$$
>  <molecule>
C=C1C2=CC(=O)O[C@@H](c3ccoc3)[C@]2(C)CCC1[C@@]1(C)C=CC(=O)C(C)(C)[C@@H]1CC(=O)OC (some centres undefined)

>  <normalized growth>
0.991

$$$$

----------
# measurement protocol: chemical genetic growth profiling, strain panel (AID 1159580);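 note: tested at 20 µM; growth read once vehicle control cultures reached saturation at 30 °C; 1 = growth at the plate median or of vehicle wells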
# condition label: S. cerevisiae deletion strains, growth OD, locus YLR357W, strain rsc2, stronger effect = lower value
Hit rate of the full screen: of about 5,500 compounds, about 2,000 (36%) were called active. Inconclusive results (about 18%) are left out. The list shows a part of the results.
Binary call on normalized growth with cut-off 1: strictly below means 1, and equality or higher means -1.

>  <compound>
C[C@H](CCC(=O)O)[C@H]1CCC2C3C(CC[C@@]21C)[C@@]1(C)CC[C@@H](O)C[C@H]1C[C@@H]3O (stereo partly specified)

>  <assigned label>
-1

$$$$
>  <compound>
CC(C)CCCC(C)C1CCC2C3CC[C@H]4CCCC[C@]4(C)C3CC[C@]12C (stereo partly specified)

>  <assigned label>
-1

$$$$
>  <compound>
Cc1nc2ccccn2c(=O)c1CCN1CCC(C(=O)c2ccc(F)cc2)CC1

>  <assigned label>
1

$$$$
